Tested on: MS2 coat protein
assay.method.text: apparent KD of MS2 coat protein, switch OFF state (with FMN for OFF switches, without FMN for ON switches); designed switch direction (-1 OFF switch, 1 ON switch): -1; higher = weaker reporter binding
assay.conditions: FMN input: 0 or 200 uM; Eterna round: R93 (includes R88 designs)
# label = satisfied if apparent KD of MS2 coat protein >= 30 nM else not satisfied

seq_text="AUAAAGUCAGGAUAUGUAAAAAUAACGAAAGUUAUAAAUAAACAGAAGGGACAUGAGGAUCACCCAUGUACAAU [Opal 15]" test_system="MS2 coat protein" label_class="not satisfied"
seq_text="AGCUAGUGAGGAUAUACGAACAUGUCAAAAGACGUGAAGGGACAUGAGGAUCACCCAUGUAGAAGGCGCUAGCA [JL 74% mod]" test_system="MS2 coat protein" label_class=satisfied
seq_text="AAAAAACAUGAGGAUCACCCAUGUGAGGAUAUGACUUAAAUAAAGAAAGAAGAAAUAGUCAGAAGGCACAAAUA [Mat - Mod of Nando]" test_system="MS2 coat protein" label_class=satisfied
seq_text="AAGUUAUUAGGAUAUACUAGUGCGAUUAAUACGCUGAUAGUACAUGAGGAUCACCCAUGUAGAAGGAAUAAAAA [JR_Exc002_Sub409]" test_system="MS2 coat protein" label_class="not satisfied"
seq_text="AAAAUGUGAGGAUAUGUACGAAAAAAUAAAAAAAUAAAAGUACAGAAGGCACAUGAGGAUCACCCAUGUGAAAA [EX4 396: Minimal 9]" test_system="MS2 coat protein" label_class=satisfied
seq_text="AAAAAGUGAGGAUAUACGCUGAGGAGUAGACACAACCUGGCGUAGAAGGCACAUGAGGAUCACCCAUGUCCAAA [EX4 Malc#12]" test_system="MS2 coat protein" label_class=satisfied
seq_text="AAAACACAUGAGGAUCACCCAUGUGAGGAUAUGCAAAACCCAUAUAAAAAGGGAAAAAGCAGAAGGCACAAAAA [wbt round 1 mod 12]" test_system="MS2 coat protein" label_class="not satisfied"
seq_text="CCCAUGUCAGGAUAUCAGUAGUAAAAAAAAAAAAUUACUACUGAGAAGGGACAUGAGGAUCACCCAUGUUCCAA [EX4 318: Super Stable 18]" test_system="MS2 coat protein" label_class=satisfied
seq_text="AAAAAGGGAGGAUAUACAUGAGGAUCACCCAUGUAUCAGACGAAAAAGAGUCUGAAAUGUAGAAGGCCCAAAAA [65%, Moding Exclusion3-cac2, 2]" test_system="MS2 coat protein" label_class=satisfied
seq_text="AAGGGACAUGAGGAUCACCCAUGUCAGGAUAUGAUGCGAAUAAAGAAAGAAGAAAGCAUCAGAAGGGACGCCAA [58%, Disencluded 3, 5]" test_system="MS2 coat protein" label_class=satisfied
seq_text="AAAAAGAUAGGAUAUACGAACAUGUCAAAAGACGUGAAGGGACAUGAGGAUCACCCAUGUAGAAGGAUUAAAAA [JL Wide Open 39]" test_system="MS2 coat protein" label_class="not satisfied"
seq_text="AACUGACAUGAGGAUCACCCAUGUCAGGAUAUGACAUCGAAAAAAAAAAAAAUCGUUGUCAGAAGGGACAUGGG [Design 73: Sub-opt QB]" test_system="MS2 coat protein" label_class="not satisfied"
seq_text="AAAAAGUGAGGAUAUCGGAAAAAAAAAAAAAAAAAAAAAAACGAGAAGGCACAUGAGGAUCACCCAUGUAAAAA [all GC all the time + G boost - take 2]" test_system="MS2 coat protein" label_class=satisfied
seq_text="AAGGGACAUGAGGAUCACCCAUGUCAGGAUAUGAUGCGAAUAAAGAAAGAAGAAAGCAUCAGAAGGGACGCCUA [58%, Disencluded 3, 6]" test_system="MS2 coat protein" label_class="not satisfied"
seq_text=AAGAAGUGAGGAUAUACGCGAACAAAAAAAAAAAAGAAAGCGUAGAAGGCACAUGAGGAUCACCCAUGUCCAAA test_system="MS2 coat protein" label_class=satisfied
seq_text="GCAAAGUGAGGAUAUACGCGAACAAUAAAAAUAAAGAAAGCGUAGAAGGCACAUGAGGAUCACCCAUGUCCAGC [Mat - Exaclusion 4 - Eli mod - D78]" test_system="MS2 coat protein" label_class="not satisfied"
seq_text="UAUACGUGAGGAUAUGCGAAUAACACGUUAGACAAAUAGACGCAGAAGGCACAUGAGGAUCACCCAUGUGAACC [JR_Exc004_Sub316]" test_system="MS2 coat protein" label_class="not satisfied"
seq_text="AAUAAGUGAGGAUAUGUAAAUAGUAGAUAAGAUUCCCUAAAACAGAAGGCACAUGAGGAUCACCCAUGUAAAUA [JR_Exc004_Sub007]" test_system="MS2 coat protein" label_class="not satisfied"
seq_text="AUAAAGUGAGGAUAUGCUAAUAAAUAAAUAGACAAAUAAAUGCAGAAGGCACAUGAGGAUCACCCAUGUAAGAA [Ex 4 Tesla 3]" test_system="MS2 coat protein" label_class="not satisfied"
seq_text="AAAAUGUCAGGAUAUUCGGAUAGGAAAACGAAAACCUAUCCGAAGAAGGGACAUGAGGAUCACCCAUGUAAAAA [Starry Exclusion 4.2 (cataway round 1 mod)]" test_system="MS2 coat protein" label_class=satisfied
seq_text="AACUGGGCAGGAUAUACAUGAGGAUCACCCAUGUAAAGAAAAGAAAGGUCCGAGGAAAGUAGAAGGGCCUGGAA [Variant 5 of Mod 1 of Ex3 sub 3, by Tesla's Dusciple Round 1]" test_system="MS2 coat protein" label_class=satisfied
seq_text="AACAGUACAGGAUAUACAUGAGGAUCACCCAUGUAAAAUAAAUAAAAAUAAAAAGGAAGUAGAAGGGUACUGGA [Moding Maslow revisited (73) 18]" test_system="MS2 coat protein" label_class="not satisfied"

###

Test system: K4 kissing-loop RNA reporter;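 also: bound reporter read as fluorescence of individual clusters on recovered sequencing chips by microscopy, with normalized cluster intensities fitted with a binding model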
assay.method.text: apparent KD of K4 kissing-loop reporter; higher = weaker reporter binding
assay.conditions: Eterna round: R107; input ligand: none
# binning rule on apparent KD of K4 kissing-loop reporter: lowest (below 0.2 µM), middle (0.2 µM to below 0.3 µM), highest (0.3 µM or more)

seq_text="AGACUACCACACUGUCAAUAGACAGUGUACUAGGAUAUGCUGAUAAGCAGAAGGAGUGAUGUUCCUCGGUAGUCAAUAAAAUAAU [FmnAX 13 U28+C67]" test_system="K4 kissing-loop RNA reporter" label_class=middle
seq_text="UCGUCUGUGUGAGGAUAUCCAAGCGAGCUGCGUACAGGUGCGGCGUUUGGAGUGAUGUUCCAGGCAGGAGAAGGCGCACGGGCUU [Esored]" test_system="K4 kissing-loop RNA reporter" label_class=middle
seq_text="AAUACUAUCAGAAGGAGCGUGGAAUAUUCAUCUGUAUCUAAUACGAGUGAUGUUCGUAAUUCACAGGUAGGUCGCUGAUUAAUAC [whbob_Ex_Arginine_B_2th158]" test_system="K4 kissing-loop RNA reporter" label_class=middle
seq_text="AAUUUAUAUUUAUUCUUUAAUUGUUCAGAAGGAGCGUGAAUUAUCACAGGUAGGUCGCUGAGCUAGUGAUGUUAGCUAUAUACUA [JR_ExcArginiA_Sub008]" test_system="K4 kissing-loop RNA reporter" label_class=lowest
seq_text="GGUGACAGCCAGGAGUGAUGUAUAGAAUAGCGAGGACCGGUACGGCCGCCACUCGUGAAGAGAAAGGAGUGAUGUUCCGUAAUGG [Kazoo C2]" test_system="K4 kissing-loop RNA reporter" label_class=lowest
seq_text="GUUAUGGACCUGGAUACCAGCUGGUACUAAGUGGGAGAAUGAAAGUGAUGUUUUCGUGCUAGCCCUUGGCAGCCAGCAACCCGCA [XTheo-B7]" test_system="K4 kissing-loop RNA reporter" label_class=lowest
seq_text="AAGGUGAUCCUCGAUACCAGCUCAAAAUGAGUGAUGUUCAUGAAAGCCUGGAAACAGGCGAGCCCUUGGCAGCGAGUUACAUCAA [KL-SSTheoB8]" test_system="K4 kissing-loop RNA reporter" label_class=lowest
seq_text="UAGGGCAUCGCAGGAUAUCCUGCUUAACGUUGGAUUCCAGUGAUGUUGGAAAGCCGGCCUAGGGUAGGAGAAGGGCGGACUUGAA [Riteteve]" test_system="K4 kissing-loop RNA reporter" label_class=lowest
seq_text="UUUGGAGUGGGAGGAUAUCCUAAUAUGGGUGAUGUUAGCGAUGUUGAAGGUGUAGUGAUGUUAUGCGGAGAAGGCCCACUGUAGA [BDazzled - #19 - Exc. FMN B]" test_system="K4 kissing-loop RNA reporter" label_class=lowest
seq_text=CCUCACGUAGGACUAGUGAUGUUAGACUACCGAGGACCGGUACGGCCGCCACUCGUCGUACAAGAUAACCUUCCGCCAGUAUACA test_system="K4 kissing-loop RNA reporter" label_class=lowest
seq_text="UAAUAAAUUCCAGCGAUGUCACUCUUCGAAGGAGCGGACGAAAGUCCAGGUAGGUCGCGAAGAGUGAUGUUCUUCGCGGCGCUGG [Omei KL Arginine A Exc A v3]" test_system="K4 kissing-loop RNA reporter" label_class=lowest
seq_text="CGCAGUGAUGUUGCGAAUAUAAUAACGGAAGGAGCGCGUGAAAACGCAGGUAGGUCGCCGUUUGGUAUGAUGGAAACAUCGUACC [Arginine A K4 11]" test_system="K4 kissing-loop RNA reporter" label_class=lowest
seq_text="CUCGAGUGAUGUUCGAUUAUGUAUACAGAUACCAGUGAAUUUUAACACCCUUGGCAGCUGGUAGAAUCAUUGUAAUUUUAACUAG [JR_ExcTheophyA_Sub001]" test_system="K4 kissing-loop RNA reporter" label_class=middle
seq_text="CAAACGGGUUGGCUUGGAGACUGCAGACGCAAGGAUAUCGCGAAGACGAGAAGGUGCGGGCCUGGUAGUGAUGUUACAGUUUGGU [theeternabot_sameState_KL_FMN_A_21]" test_system="K4 kissing-loop RNA reporter" label_class=highest
seq_text="CUUAAGACAUGAGUGAUGUUCAUGUCCGAAGGAGCGUGCGAAAGCACAGGUAGGUCGCGGACGUGAGUGAUGUUCAUGUAAGCGA [KL-XArg-A11 #analogue]" test_system="K4 kissing-loop RNA reporter" label_class=lowest
seq_text="CAGAACUUGUAUACAGGGUAUGUAAGAGAUACCAGUCAAAUUAAAGACCCUUGGCAGCUCAGGCGAGUGAUGUUCGCAGGCUAAC [Exclusion Theophylline A GF 18]" test_system="K4 kissing-loop RNA reporter" label_class=lowest
seq_text="UCUGUUGUAUAUGAUACCAGCAGUGAGAGACAGGAAGUAUAGUGAUGUUAUAUGAGAGAAUGCCCUUGGCAGCGUGUGCGGGUGG [SSTheophylB.X]" test_system="K4 kissing-loop RNA reporter" label_class=lowest
seq_text="GUACGCUCUCGAGUGAUGUUCGGUAAUCGCUAGGAUAUCGCUUUUGCGAGAAGGAGCGGAAUGAGGAAACUCGUUCUGAGUGUAC [FMN A 22]" test_system="K4 kissing-loop RNA reporter" label_class=highest
seq_text="UUGGAGUGAUGUUCCAUGUCUUGAGCCGAAGGAGCGCCUUUCUAGGCAGGUAGGUCGCGGCAGAAGGUACCAGUGAUGUUGGAAA [Same State Arginine A GF9]" test_system="K4 kissing-loop RNA reporter" label_class=middle
seq_text="AGUACAAUGGCGGCCGCCACUCAACGCAGAUCAAAGAUCUGCAUUCACUCAGUGAUGUUGAGUGAGAGGACCGGGCCUUUGUACA [Omei KL Tryp B SS B v1]" test_system="K4 kissing-loop RNA reporter" label_class=highest
seq_text="CAUUACGGUCGCUUACCAAACCACUACUUCCGAGGACCGGUACGGCCGCCACUCGCCAGUGAUGUUGGCUCGGGCGGCCGAUUAU [Orrebeante]" test_system="K4 kissing-loop RNA reporter" label_class=lowest
seq_text="AUUAAUUUCAGAGGAUAUGCUUUAUUAUUAUUUUUAAAUAAUAUAAGCAGUGAUGUUGCUUUUUAUGCAGAAGGCUGAUUUAUAA [JR_SSFMNB_Sub016]" test_system="K4 kissing-loop RNA reporter" label_class=highest
